Data provenance: ChEMBL document CHEMBL1914354

# System: Mus musculus
# Test protocol: Neurotoxicity in ip dosed Swiss albino mouse assessed as dose required for minimal motor impairment after 0.5 hrs by rotarod test
# Format: toxicity, organism-based
# Test settings: in vivo
Measurement name: MTC (mg/kg)

Smiles notation	Recorded value
COc1ccc(/C=N/C(=O)Nc2ccc3c(c2)C(=O)C(=O)N3CN2CCOCC2)cc1	300
O=C(/N=C/c1ccccc1Cl)Nc1ccc2c(c1)C(=O)C(=O)N2CN1CCOCC1	300
O=C(/N=C/c1ccc(Br)cc1)Nc1ccc2c(c1)C(=O)C(=O)N2CN1CCCCC1	100
O=C1NC(=O)C(c2ccccc2)(c2ccccc2)N1	100
O=C(/N=C/c1ccccc1Cl)Nc1ccc2c(c1)C(=O)C(=O)N2CN1CCCCC1	100
O=C(/N=C/c1ccc([N+](=O)[O-])cc1)Nc1ccc2c(c1)C(=O)C(=O)N2CN1CCCCC1	300
O=C(/N=C/c1ccc(F)cc1)Nc1ccc2c(c1)C(=O)C(=O)N2CN1CCOCC1	300
O=C(/N=C/c1ccc(F)cc1)Nc1ccc2c(c1)C(=O)C(=O)N2CN1CCCCC1	300

###

# System: Rattus norvegicus
# Test protocol: Antiepileptic activity in Wistar rat assessed as protection against maximum electric shock-induced seizure at 30 mg/kg, po after 2 hrs
# Type: functional

Smiles notation	Activity
O=C1NC(=O)C(c2ccccc2)(c2ccccc2)N1	75%
O=C(/N=C/c1ccc(Br)cc1)Nc1ccc2c(c1)C(=O)C(=O)N2CN1CCCCC1	100%
O=C(/N=C/c1ccc(Cl)cc1)Nc1ccc2c(c1)C(=O)C(=O)N2CN1CCOCC1	100%
O=C(/N=C/c1ccc(O)cc1)Nc1ccc2c(c1)C(=O)C(=O)N2CN1CCOCC1	0%
O=C(/N=C/c1ccc(F)cc1)Nc1ccc2c(c1)C(=O)C(=O)N2CN1CCOCC1	100%
O=C(/N=C/c1ccc([N+](=O)[O-])cc1)Nc1ccc2c(c1)C(=O)C(=O)N2CN1CCCCC1	0%
